Molecular target: SGLT1 (Homo sapiens)
Sequence (P13866 whole entry): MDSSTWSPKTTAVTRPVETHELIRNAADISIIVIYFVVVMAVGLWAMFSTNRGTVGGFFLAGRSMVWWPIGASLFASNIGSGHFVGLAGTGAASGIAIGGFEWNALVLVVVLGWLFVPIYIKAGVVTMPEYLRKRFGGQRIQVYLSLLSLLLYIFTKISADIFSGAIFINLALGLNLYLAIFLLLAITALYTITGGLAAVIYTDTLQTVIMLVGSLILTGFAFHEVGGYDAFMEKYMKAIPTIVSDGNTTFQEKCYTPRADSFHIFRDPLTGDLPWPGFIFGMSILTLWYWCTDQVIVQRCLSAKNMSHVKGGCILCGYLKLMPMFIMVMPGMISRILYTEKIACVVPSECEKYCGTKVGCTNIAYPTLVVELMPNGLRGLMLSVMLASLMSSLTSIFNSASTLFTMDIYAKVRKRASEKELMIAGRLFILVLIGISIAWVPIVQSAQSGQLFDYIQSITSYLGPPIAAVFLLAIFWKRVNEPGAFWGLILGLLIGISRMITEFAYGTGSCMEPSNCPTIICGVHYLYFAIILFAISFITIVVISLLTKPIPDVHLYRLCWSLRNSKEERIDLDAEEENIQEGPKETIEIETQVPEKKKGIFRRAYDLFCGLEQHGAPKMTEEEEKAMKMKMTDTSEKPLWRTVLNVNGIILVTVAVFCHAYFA
Assay: 14C-AMG uptake in BHK cells transfected with SGLT1
Details: 50 μM AMG, 37° C., 90 min
Description: The compounds can be tested for their SGLT inhibition properties by means of BHK cells expressing SGLT1 and SGLT2. The production of the cells and the testing can be carried out as described below. Construction and Expression of SGLT1 in BHK Cells […] BHK cells (transfected with SGLT1 or SGLT2) were seeded into 96-well microtitre plates (Cultureplates, Perkin Elmer). […] The radioactivity was counted in a Topcount microplate scintillation counter (Perkin Elmer). […]
Here, each record is paired with measured IC50 data.

Sample records with IC50:
compound | IC50
COc1ccc([C@@H]2COc3ccc([C@@H]4O[C@H](CO)[C@@H](O)[C@H](O)[C@H]4O)cc32)cc1 | > 10 µM
COc1ccc(C2=CCCc3ccc([C@]4(OC)O[C@H](CO)[C@@H](O)[C@H](O)[C@H]4O)cc32)cc1 | > 10 µM
COc1ccc([C@@H]2CCc3ccc([C@@H]4O[C@H](CO)[C@@H](O)[C@H](O)[C@H]4O)cc32)cc1 | > 10 µM
COc1ccc(C2COc3ccc([C@@H]4O[C@H](CO)[C@@H](O)[C@H](O)[C@H]4O)cc32)cc1 (some centres unmarked) | > 10 µM
CCOc1ccc(C2CCc3ccc([C@@H]4O[C@H](CO)[C@@H](O)[C@H](O)[C@H]4O)cc32)cc1 (some centres unmarked) | > 10 µM
COc1ccc(C2CCc3ccc([C@@H]4O[C@H](CO)[C@@H](O)[C@H](O)[C@H]4O)cc32)cc1 (some centres unmarked) | > 10 µM

Give the measured IC50 of COc1ccc(C2CCCc3ccc([C@@H]4O[C@H](CO)[C@@H](O)[C@H](O)[C@H]4O)cc32)cc1 (some centres unmarked) .
> 10 µM

Request the reported IC50 associated with `CCOc1ccc(-n2ccc3ccc([C@@H]4O[C@H](CO)[C@@H](O)[C@H](O)[C@H]4O)cc32)cc1`
> 10 µM
